Below are pIC50 measurements against Cytochrome P450 1A2 (Homo sapiens) drawn from the literature.
- TARGET_OF_ASSAY: Cytochrome P450 1A2 (Homo sapiens)
- Sequence (P05177 whole entry): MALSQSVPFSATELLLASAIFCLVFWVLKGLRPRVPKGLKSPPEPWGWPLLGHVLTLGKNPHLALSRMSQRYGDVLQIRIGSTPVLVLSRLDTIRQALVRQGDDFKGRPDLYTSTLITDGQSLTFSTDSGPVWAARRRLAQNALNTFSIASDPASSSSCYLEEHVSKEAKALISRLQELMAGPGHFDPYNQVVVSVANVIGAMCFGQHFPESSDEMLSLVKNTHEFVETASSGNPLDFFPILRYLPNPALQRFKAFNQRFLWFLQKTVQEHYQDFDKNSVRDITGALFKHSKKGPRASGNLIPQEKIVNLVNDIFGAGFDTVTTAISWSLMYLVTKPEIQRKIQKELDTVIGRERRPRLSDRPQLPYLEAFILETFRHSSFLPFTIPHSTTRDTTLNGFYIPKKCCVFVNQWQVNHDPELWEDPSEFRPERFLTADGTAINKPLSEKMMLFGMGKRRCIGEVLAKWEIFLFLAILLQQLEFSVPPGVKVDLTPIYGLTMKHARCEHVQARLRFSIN
pIC50: −log10 of the molar value.

{"CHEMICAL_SMILES": "CCc1ncc(-c2cc(C)no2)c(C2CCN(CC(=O)N3CCOCC3)CC2)n1", "TARGET_OF_ASSAY": "Cytochrome P450 1A2 (Homo sapiens)", "pIC50": "< 3.05"}
{"CHEMICAL_SMILES": "CCS(=O)(=O)c1ccc2nc(-c3cccc(-c4ccccc4)c3F)[nH]c2c1", "TARGET_OF_ASSAY": "Cytochrome P450 1A2 (Homo sapiens)", "pIC50": 5.96}

// query Record request: pIC50 value, item `COc1ncc2cc1NS(=O)(=O)c1cccc(c1)C(=O)NCc1cccc(c1)-c1ncnc3ccc-2cc13`
// result < 4.52
